Test system: E. coli isogenic strain empty vector
Experiment: MIC broth microdilution, E. coli isogenic strain, empty vector
Format: cell-based
Settings: Table 2
For each record, check the reported Geometric Mean MIC values, E. coli isogenic strains, empty vector: if it is below 1 µg/mL write 1 (yes), else write 0 (no).

Worked examples, 3 compounds total:
compound="NC[C@@H]1O[C@H](O[C@H]2[C@@H](O)[C@H](O[C@@H]3[C@@H](O)[C@H](N)C[C@H](N)[C@H]3O[C@H]3O[C@H](CN)[C@@H](O)[C@H](O)[C@H]3N)O[C@@H]2CO)[C@H](N)[C@@H](O)[C@@H]1O [NEO, neomycin B, reference compound]" class="1 (yes)"
compound="NCC1CCC(N)C(OC2C(N)CC(N)C(O)C2OC2OC(CO)C(OC3OC(CN)C(O)C(O)C3N)C2O)O1 (stereo not drawn) [drawing 856, reference compound]" class="1 (yes)"
compound="NCC1OC(OC2C(N)CC(N)C(O)C2OC2OC(CO)C(OC3OC(CN)C(O)C(O)C3N)C2O)C(N)CC1O (stereo not drawn) [drawing 864, reference compound]" class="1 (yes)"

Task: Quick check: does NCC1OC(OC2C(CO)OC(OC3C(O)C(N)CC(N)C3OC3OC(CN)C(F)(F)C(O)C3N)C2O)C(N)C(O)C1O (stereo not drawn) have Geometric Mean MIC values, E. coli isogenic strains, empty vector under 1 µg/mL?
Output: 0 (no)
